Assay: Cytotoxicity against Mycobacterium bovis Bacillus Calmette-Guerin infected mouse J774 cells assessed as cell viability at 150 ug/ml after 48 hrs by MTT assay
Type: cell-based
Details: read-out: Activity
Please assign Criterion not met whenever viability at 48 h, 150 ug/ml is at or above 70%, and Criterion met whenever it is below.

smiles_repr	category
O=C(N/N=C/c1ccc(Br)cc1)c1cnccn1	Criterion met

Exam item: Find out if reported viability at 48 h, 150 ug/ml for O=C(N/N=C/c1ccccc1Br)c1cnccn1 is less than 70%
Marked response: Criterion met

Exam item: Record N#Cc1ccccc1/C=N/NC(=O)c1cnccn1 : is its viability at 48 h, 150 ug/ml strictly below 70%?
Marked response: Criterion not met

Exam item: Please check: viability at 48 h, 150 ug/ml for O=C(N/N=C/c1ccccc1F)c1cnccn1 , strictly under 70% or not?
Marked response: Criterion not met

Exam item: Lab note: viability at 48 h, 150 ug/ml threshold 70%. Does this compound come in strictly under it? COc1cccc(/C=N/NC(=O)c2cnccn2)c1
Marked response: Criterion not met
